These data points were gathered from patent US6696470B2.

Recorded Endpoint: melting point

Worked cases, answers included:
CSc1sc(-c2ccncc2)c2c1C(=O)CCC2 = 115 to 116 °C
Cc1c(-c2ccncc2)sc2c1C(=O)CCC2 = 129 to 130 °C
CN(C)C(=O)CCc1cc(-c2ccncc2)sc1-c1ccncc1 = 166.5 to 167 °C
O=C(c1ccccc1)c1cc(-c2ccncc2)sc1-c1ccncc1 = 168 to 170 °C
CC(=O)c1cc(-c2ccncc2)sc1Oc1ccccc1F = 93 to 96 °C

// next entry
Data request: GET /values?readout=melting point&item= O=C1CCc2c(-c3ccc(F)cc3)sc(-c3ccncc3)c21
Data returned: 155 to 157 °C
